Reported MIC is given for each of the following compounds.
test system: Aspergillus niger; experiment: Antifungal activity against Aspergillus niger 37a assessed as reduction in fungal growth incubated for 48 hrs by CLSI based serial microbroth dilution method; assay type: functional
Entry rule: numbers only, all in µg/mL.

Would you please look over these solved cases?
* Cc1ccc(-n2c(=S)sc3c(=O)n(CCCN4CCN(CC(O)(Cn5cncn5)c5ccc(F)cc5F)CC4)cnc32)cc1 (stereo unspecified) | 32
* OC(Cn1cncn1)(Cn1cncn1)c1ccc(F)cc1F | 64
* O=c1c2sc(=S)n(-c3ccc(Cl)cc3)c2ncn1CCCN1CCN(CC(O)(Cn2cncn2)c2ccc(F)cc2F)CC1 (stereo unspecified) | 32
* O=c1c2sc(=S)n(-c3ccc(F)cc3)c2ncn1CCCN1CCN(CC(O)(Cn2cncn2)c2ccc(F)cc2F)CC1 (stereo unspecified) | 16
* Cc1ccc(-n2c(=S)sc3c(=O)n(CCN4CCN(CC(O)(Cn5cncn5)c5ccc(F)cc5F)CC4)cnc32)cc1 (stereo unspecified) | 32

As a next step, examine the compound that follows.
Look up MIC for this compound: O=c1c2sc(=S)n(-c3ccc(F)cc3)c2ncn1CCN1CCN(CC(O)(Cn2cncn2)c2ccc(F)cc2F)CC1 (stereo unspecified)
32

---

tested on: Aspergillus niger; experiment: Antifungal activity against Aspergillus niger 37a assessed as reduction in fungal growth incubated for 24 hrs by CLSI based serial microbroth dilution method; type: functional
Test readout: MIC (µg/mL)
Number in µg/mL, nothing else.

• Cc1ccc(-n2c(=S)sc3c(=O)n(CCCN4CCN(CC(O)(Cn5cncn5)c5ccc(F)cc5F)CC4)cnc32)cc1 (stereo unspecified) = 32
• Cc1ccc(-n2c(=S)sc3c(=O)n(CCN4CCN(CC(O)(Cn5cncn5)c5ccc(F)cc5F)CC4)cnc32)cc1 (stereo unspecified) = 32
• O=c1c2sc(=S)n(-c3ccc(Cl)cc3)c2ncn1CCCN1CCN(CC(O)(Cn2cncn2)c2ccc(F)cc2F)CC1 (stereo unspecified) = 32
• O=c1c2sc(=S)n(-c3ccc(F)cc3)c2ncn1CCCN1CCN(CC(O)(Cn2cncn2)c2ccc(F)cc2F)CC1 (stereo unspecified) = 16

What does the data say about its MIC? Entry: OC(Cn1cncn1)(Cn1cncn1)c1ccc(F)cc1F [FLUCONAZOLE]
64

Param item = O=c1c2sc(=S)n(-c3ccc(F)cc3)c2ncn1CCN1CCN(CC(O)(Cn2cncn2)c2ccc(F)cc2F)CC1 (stereo unspecified) ; retrieve measured MIC.
32
